Target: ErbB2 V777L (Homo sapiens (Human), UniProt P04626, V777L)
Sequence (P04626 23-1255 V777L): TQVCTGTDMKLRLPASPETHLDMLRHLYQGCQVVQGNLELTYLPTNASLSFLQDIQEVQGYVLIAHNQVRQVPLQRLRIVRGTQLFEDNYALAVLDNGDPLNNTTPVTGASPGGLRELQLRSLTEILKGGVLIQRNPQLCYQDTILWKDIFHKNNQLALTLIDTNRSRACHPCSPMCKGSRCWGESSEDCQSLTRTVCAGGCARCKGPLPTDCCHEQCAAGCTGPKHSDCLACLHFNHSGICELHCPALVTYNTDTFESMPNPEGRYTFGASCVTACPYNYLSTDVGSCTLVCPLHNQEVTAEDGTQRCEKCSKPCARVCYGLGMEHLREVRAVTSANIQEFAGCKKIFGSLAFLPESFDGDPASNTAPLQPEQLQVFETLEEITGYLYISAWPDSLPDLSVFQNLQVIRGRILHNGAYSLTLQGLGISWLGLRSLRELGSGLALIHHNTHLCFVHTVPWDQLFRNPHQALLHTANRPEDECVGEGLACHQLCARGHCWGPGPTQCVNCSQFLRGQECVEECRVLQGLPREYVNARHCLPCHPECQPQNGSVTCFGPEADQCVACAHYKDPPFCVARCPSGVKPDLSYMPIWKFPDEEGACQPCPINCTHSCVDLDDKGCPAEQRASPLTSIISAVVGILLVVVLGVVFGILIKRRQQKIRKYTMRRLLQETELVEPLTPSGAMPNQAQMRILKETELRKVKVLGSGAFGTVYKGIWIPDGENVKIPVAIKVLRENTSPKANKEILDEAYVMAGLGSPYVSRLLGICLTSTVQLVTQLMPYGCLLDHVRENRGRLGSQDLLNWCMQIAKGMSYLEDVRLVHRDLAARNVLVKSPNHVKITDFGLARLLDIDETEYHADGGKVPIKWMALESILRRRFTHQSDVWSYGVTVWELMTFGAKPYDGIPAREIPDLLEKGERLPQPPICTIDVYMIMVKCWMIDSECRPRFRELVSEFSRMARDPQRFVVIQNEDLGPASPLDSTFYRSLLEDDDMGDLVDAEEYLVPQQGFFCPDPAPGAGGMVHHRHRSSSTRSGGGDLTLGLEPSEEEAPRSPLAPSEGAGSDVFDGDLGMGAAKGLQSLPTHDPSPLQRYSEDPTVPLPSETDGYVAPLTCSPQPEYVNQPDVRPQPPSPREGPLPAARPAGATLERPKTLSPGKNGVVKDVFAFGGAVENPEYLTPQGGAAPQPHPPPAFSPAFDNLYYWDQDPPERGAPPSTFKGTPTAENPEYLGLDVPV
Assay: ErbB enzyme assay (CisBio HTRF-KinEASE-TK), ErbB2 V777L
Format: biochemical
pIC50: −log10 of the molar value.
For each entry below, report its pIC50 value.

C=CC(=O)N1CCN(c2ccc3ncnc(Nc4cc(C)c(Oc5ccc6c(c5)nnn6C)cc4F)c3n2)CC1 [Compound 94]	7.00 to 7.30
C=CC(=O)N1C[C@H](N(C)c2ccc3ncnc(Nc4ccc(Oc5ccc6c(c5)nnn6C)c(C)c4)c3n2)C[C@H]1C [Compound 266]	7.00 to 7.30
C=CC(=O)N[C@@H]1CCCN(c2ccc3ncnc(Nc4ccc(Oc5ccc6c(c5)nnn6C)c(C)c4F)c3n2)C1 [Compound 260]	6.30 to 7.00
C=CC(=O)N(C)C1CN(c2ncc3ncnc(Nc4ccc(Oc5ccc6c(c5)nnn6C)c(C)c4F)c3n2)C1 [Compound 28]	6.30 to 7.00
C=CC(=O)N1CCN(c2ccc3ncnc(Nc4ccc(Oc5cc(F)c6c(c5)nnn6C)c(C)c4)c3n2)C[C@@H]1C1CC1 [Compound 290]	6.30 to 7.00

Shifting focus to the molecule that follows.
Lab note: measured pIC50 of C=CC(=O)N1CCN(c2ncc3ncnc(Nc4ccc(Oc5cnc6c(c5)ncn6C)c(C)c4F)c3n2)C[C@H]1C [Compound 158] was 6.30 to 7.00
